Test: Urinary excretion study in rats after oral NS, SF or CNS (LC–MS/MS)
Format: in vivo
Settings: rat urine, oral NS 60 mg/kg, 48 h
Method: The animal room was set at constant temperature of 20 ± 2 °C with humidity of 50 ± 20% and 12/12 h light/dark cycle. Eighteen male rats were fasted for 12 h before starting the experiment. […] The urine volume was recorded and the dry feces were measured for each collection period. […] The accumulative excretion percentage was calculated for each analyte as follows. […]
measured-quantity: Accumulative excretion percentage (%)
// units = %; emit number, no label

CC(C)=CCC[C@](C)(O[C@@H]1O[C@H](CO[C@@H]2O[C@H](CO)[C@@H](O)[C@H](O)[C@H]2O)[C@@H](O)[C@H](O)[C@H]1O)[C@H]1CC[C@]2(C)[C@@H]1[C@H](O)C[C@@H]1[C@@]3(C)CC[C@H](O[C@@H]4O[C@H](CO)[C@@H](O)[C@H](O)[C@H]4O[C@@H]4O[C@H](CO)[C@@H](O)[C@H](O)[C@H]4O)C(C)(C)[C@@H]3CC[C@]12C [ginsenoside Rb1] | 0.058
CC(C)=CCC[C@](C)(O[C@@H]1O[C@H](CO)[C@@H](O)[C@H](O)[C@H]1O)[C@H]1CC[C@]2(C)[C@@H]1[C@H](O)C[C@@H]1[C@@]3(C)CC[C@H](O)C(C)(C)[C@@H]3[C@@H](O[C@@H]3O[C@H](CO)[C@@H](O)[C@H](O)[C@H]3O[C@@H]3O[C@@H](C)[C@H](O)[C@@H](O)[C@H]3O)C[C@]12C [ginsenoside Re] | 0.152
CC(C)=CCC[C@](C)(O[C@@H]1O[C@H](CO)[C@@H](O)[C@H](O)[C@H]1O)[C@H]1CC[C@]2(C)[C@@H]1[C@H](O)C[C@@H]1[C@@]3(C)CC[C@H](O)C(C)(C)[C@@H]3[C@@H](O[C@@H]3O[C@H](CO)[C@@H](O)[C@H](O)[C@H]3O)C[C@]12C [ginsenoside Rg1] | 0.465

Now let's try a different one.
Query: Accumulative excretion percentage; subject: CC(C)=CCC[C@](C)(O[C@@H]1O[C@H](CO)[C@@H](O)[C@H](O)[C@H]1O)[C@H]1CC[C@]2(C)[C@@H]1[C@H](O)C[C@@H]1[C@@]3(C)CC[C@H](O[C@@H]4O[C@H](CO)[C@@H](O)[C@H](O)[C@H]4O[C@@H]4O[C@H](CO)[C@@H](O)[C@H](O)[C@H]4O)C(C)(C)[C@@H]3CC[C@]12C [ginsenoside Rd] 0.041

====

Assay: Urinary excretion study in rats after oral NS, SF or CNS (LC–MS/MS)
Type: in vivo
Details: male, Sprague Dawley, rat, urine, oral, oral CNS 110 mg/kg, 48 h
measured-quantity: concentration at 48 h (ng/mL)
Express your answer in ng/mL, writing the number without its unit.

Name the reported concentration at 48 h value associated with the molecule CC(C)=CCC[C@](C)(O[C@@H]1O[C@H](CO[C@@H]2O[C@H](CO)[C@@H](O)[C@H](O)[C@H]2O)[C@@H](O)[C@H](O)[C@H]1O)[C@H]1CC[C@]2(C)[C@@H]1[C@H](O)C[C@@H]1[C@@]3(C)CC[C@H](O[C@@H]4O[C@H](CO)[C@@H](O)[C@H](O)[C@H]4O[C@@H]4O[C@H](CO)[C@@H](O)[C@H](O)[C@H]4O)C(C)(C)[C@@H]3CC[C@]12C [ginsenoside Rb1] 51
